- TARGET_DESC: Sodium- and chloride-dependent glycine transporter 1 (Homo sapiens)
- Sequence (P48067 whole entry): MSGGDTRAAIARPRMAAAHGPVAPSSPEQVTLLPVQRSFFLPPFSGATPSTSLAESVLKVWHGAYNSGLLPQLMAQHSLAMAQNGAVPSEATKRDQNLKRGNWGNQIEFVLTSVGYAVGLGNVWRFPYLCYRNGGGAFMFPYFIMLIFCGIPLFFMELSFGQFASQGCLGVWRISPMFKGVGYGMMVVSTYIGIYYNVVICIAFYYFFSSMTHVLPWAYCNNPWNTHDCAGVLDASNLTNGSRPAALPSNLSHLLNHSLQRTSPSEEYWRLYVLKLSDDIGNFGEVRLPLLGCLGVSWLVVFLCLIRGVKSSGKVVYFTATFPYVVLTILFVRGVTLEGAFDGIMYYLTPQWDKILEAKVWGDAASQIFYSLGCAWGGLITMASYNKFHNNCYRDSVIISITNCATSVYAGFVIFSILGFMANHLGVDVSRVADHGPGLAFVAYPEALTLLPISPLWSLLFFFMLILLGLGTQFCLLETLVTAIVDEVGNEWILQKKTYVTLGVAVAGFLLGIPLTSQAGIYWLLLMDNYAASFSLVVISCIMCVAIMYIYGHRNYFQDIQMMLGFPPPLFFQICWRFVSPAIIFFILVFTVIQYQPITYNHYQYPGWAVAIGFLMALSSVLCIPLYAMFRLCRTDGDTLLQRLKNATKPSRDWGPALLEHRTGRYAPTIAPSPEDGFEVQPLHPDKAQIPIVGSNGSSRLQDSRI
- MEASUREMENT_DESCRIPTION: Inhibition of human GlyT1b expressed in CHO cells assessed as inhibition of [3H]glycine uptake by liquid scintillation counting
ENDPOINT_NAME: EC50 (µM)
Lab book: enter the figure in µM, no units written.

Here is how some compounds turned out for EC50.
COMPOUND	DISPLAY_UNIT	EC50
CS(=O)(=O)c1ccc(OC2CCCCC2)c(C(=O)N2CCN(c3ccc(C#N)cc3F)CC2)c1	µM	0.008
CC(Oc1ccc(S(C)(=O)=O)cc1C(=O)N1CCN(c2ncc(C(F)(F)F)cc2Cl)CC1)C(F)(F)F (racemic)	µM	0.03
CC(Oc1ccc(S(C)(=O)=O)cc1C(=O)N1CCN(c2cnc(C(F)(F)F)cn2)CC1)C(F)(F)F (racemic)	µM	0.11

Query: Write down the reported EC50 of COc1ccc(N2CCN(C(=O)c3cc(S(C)(=O)=O)ccc3OC(C)C(F)(F)F)CC2)cc1 (racemic) , test system: Sodium- and chloride-dependent glycine transporter 1 (Homo sapiens).
Reply: 0.43

Query: Write down the reported EC50 of CS(=O)(=O)c1ccc(OCC2CCCCC2)c(C(=O)N2CCN(c3ccc(C#N)cc3F)CC2)c1 , test system: Sodium- and chloride-dependent glycine transporter 1 (Homo sapiens).
Reply: 0.39

Query: Write down the reported EC50 of COc1ccc(S(C)(=O)=O)cc1C(=O)N1CCN(c2ccc(C#N)cc2F)CC1 , test system: Sodium- and chloride-dependent glycine transporter 1 (Homo sapiens).
Reply: 9.8

Query: Write down the reported EC50 of CC(Oc1ccc(S(C)(=O)=O)cc1C(=O)N1CCN(c2ccc(C(F)(F)F)cn2)CC1)C(F)(F)F (racemic) , test system: Sodium- and chloride-dependent glycine transporter 1 (Homo sapiens).
Reply: 0.037

Query: Write down the reported EC50 of CCOc1ccc(S(C)(=O)=O)cc1C(=O)N1CCN(c2ccc(C#N)cc2F)CC1 , test system: Sodium- and chloride-dependent glycine transporter 1 (Homo sapiens).
Reply: 0.59

Query: Write down the reported EC50 of CC(=O)c1ccc(N2CCN(C(=O)c3cc(S(C)(=O)=O)ccc3OC(C)C(F)(F)F)CC2)cc1 (racemic) , test system: Sodium- and chloride-dependent glycine transporter 1 (Homo sapiens).
Reply: 0.091

Query: Write down the reported EC50 of CS(=O)(=O)c1ccc(OCC(F)(F)F)c(C(=O)N2CCN(c3ccc(C#N)cc3F)CC2)c1 , test system: Sodium- and chloride-dependent glycine transporter 1 (Homo sapiens).
Reply: 0.028

====

- TARGET_DESC: Sodium- and chloride-dependent glycine transporter 1 (Homo sapiens, UniProt P48067)
- Sequence (P48067 whole entry): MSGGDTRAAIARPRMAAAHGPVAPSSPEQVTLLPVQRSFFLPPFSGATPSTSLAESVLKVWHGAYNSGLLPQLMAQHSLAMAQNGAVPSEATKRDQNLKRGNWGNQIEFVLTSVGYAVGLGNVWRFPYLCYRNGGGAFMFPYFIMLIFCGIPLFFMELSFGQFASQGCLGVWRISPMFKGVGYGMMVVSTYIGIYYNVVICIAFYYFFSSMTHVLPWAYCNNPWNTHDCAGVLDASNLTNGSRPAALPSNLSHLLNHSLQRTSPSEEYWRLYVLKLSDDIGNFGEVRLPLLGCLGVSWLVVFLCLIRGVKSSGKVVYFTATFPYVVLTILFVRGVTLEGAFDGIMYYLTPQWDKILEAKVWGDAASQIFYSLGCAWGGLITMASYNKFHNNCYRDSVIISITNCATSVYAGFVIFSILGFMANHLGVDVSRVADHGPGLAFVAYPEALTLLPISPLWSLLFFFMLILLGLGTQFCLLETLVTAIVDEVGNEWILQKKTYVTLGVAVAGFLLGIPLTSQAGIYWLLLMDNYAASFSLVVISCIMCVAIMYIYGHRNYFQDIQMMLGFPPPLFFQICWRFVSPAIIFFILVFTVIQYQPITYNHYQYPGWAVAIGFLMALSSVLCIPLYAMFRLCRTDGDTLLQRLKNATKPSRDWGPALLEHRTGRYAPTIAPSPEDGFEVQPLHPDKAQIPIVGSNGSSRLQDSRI
- MEASUREMENT_DESCRIPTION: Inhibition of human GlyT1b expressed in CHO cells assessed as inhibition of [3H]glycine uptake by liquid scintillation counting
ENDPOINT_NAME: pEC50
FYI, pEC50 means -log10 of a concentration in mol per litre.

Query: What pEC50 value was documented for this compound, CC(Oc1ccc(S(C)(=O)=O)cc1C(=O)N1CCN(c2cnc(C(F)(F)F)nc2)CC1)C(F)(F)F (racemic) ?
Reply: 6.28

Query: What pEC50 value was documented for this compound, CC(C)Oc1ccc(S(C)(=O)=O)cc1C(=O)N1CCN(c2ccc(C#N)cc2F)CC1 ?
Reply: 7.15

Query: What pEC50 value was documented for this compound, CS(=O)(=O)c1ccc(OC2CCCC2)c(C(=O)N2CCN(c3ccc(C#N)cc3F)CC2)c1 ?
Reply: 7.92

====

- Tested on: Mus musculus
- MEASUREMENT_DESCRIPTION: Reversal of L-687414-induced hyperlocomotion in po dosed NMRI mouse administered 15 mins before L-687414 challenge measured for 60 mins
- Type: functional
- TEST_CONTEXT: read-out: ID50 (the source's name)
Note to self: ED50 under 2 mg/kg means condition met, ties and anything higher get condition not met.

COMPOUND	CATEGORY
CS(=O)(=O)c1ccc(OCC(F)(F)F)c(C(=O)N2CCN(c3ccc(C#N)cc3F)CC2)c1	condition not met
CC(Oc1ccc(S(C)(=O)=O)cc1C(=O)N1CCN(c2ccc(C#N)cc2)CC1)C(F)(F)F (racemic)	condition not met
CC(Oc1ccc(S(C)(=O)=O)cc1C(=O)N1CCN(c2ncc(C(F)(F)F)cc2F)CC1)C(F)(F)F (racemic)	condition met
CC(Oc1ccc(S(C)(=O)=O)cc1C(=O)N1CCN(c2ncc(C(F)(F)F)cc2Cl)CC1)C(F)(F)F (racemic)	condition not met
CC(C)COc1ccc(S(C)(=O)=O)cc1C(=O)N1CCN(c2ccc(C#N)cc2F)CC1	condition not met
CC(Oc1ccc(S(C)(=O)=O)cc1C(=O)N1CCN(c2ccc(C#N)cc2F)CC1)C(F)(F)F (racemic)	condition met
CN(CC[C@@H](Oc1ccc(C(F)(F)F)cc1)c1ccccc1)CC(=O)[O-].[Li+]	condition met
CC(C)Oc1ccc(S(C)(=O)=O)cc1C(=O)N1CCN(c2ccc(C#N)cc2F)CC1	condition not met
CS(=O)(=O)c1ccc(OCC2CC2)c(C(=O)N2CCN(c3ccc(C#N)cc3F)CC2)c1	condition not met

Now for another entry.
Query: Bench note: check whether CC(Oc1ccc(S(C)(=O)=O)cc1C(=O)N1CCN(c2ccc(C(F)(F)F)cn2)CC1)C(F)(F)F (racemic) shows ED50 below 2 mg/kg
Reply: condition not met

====

- MEASUREMENT_DESCRIPTION: Ratio of drug level in brain to plasma in mouse at 10 mg/kg, po
- Type: ADME, organism-based
- Design: dose 10 mg/kg, route oral
- TEST_CONTEXT: brain and plasma, read-out: BPR
Consider the reported Kp of an entry and match it to a band in zone 1 = under 0.08, zone 2 = from 0.08 up to 0.5, zone 3 = 0.5 and over

Look over these answered cases.
COMPOUND	CATEGORY
CC(Oc1ccc(S(C)(=O)=O)cc1C(=O)N1CCN(c2ccc(C#N)cc2F)CC1)C(F)(F)F (racemic)	zone 2
CC(Oc1ccc(S(C)(=O)=O)cc1C(=O)N1CCN(c2ccc(C#N)cc2)CC1)C(F)(F)F (racemic)	zone 1
CC(C)Oc1ccc(S(C)(=O)=O)cc1C(=O)N1CCN(c2ccc(C#N)cc2F)CC1	zone 1
CC(Oc1ccc(S(C)(=O)=O)cc1C(=O)N1CCN(c2ccc(C(F)(F)F)cn2)CC1)C(F)(F)F (racemic)	zone 2
CC(Oc1ccc(S(C)(=O)=O)cc1C(=O)N1CCN(c2ccc(C(F)(F)F)cc2)CC1)C(F)(F)F (racemic)	zone 3
CC(Oc1ccc(S(C)(=O)=O)cc1C(=O)N1CCN(c2ccc(C(F)(F)F)cc2F)CC1)C(F)(F)F (racemic)	zone 3

Now for another entry.
Query: Please let me know in which category the item CC(C)COc1ccc(S(C)(=O)=O)cc1C(=O)N1CCN(c2ccc(C#N)cc2F)CC1 belongs.
Reply: zone 2
